- TARGET DESC: human TREK-1 (Homo sapiens, UniProt O95069)
- Construct: expressed in transfected cells
- Sequence (O95069 whole entry): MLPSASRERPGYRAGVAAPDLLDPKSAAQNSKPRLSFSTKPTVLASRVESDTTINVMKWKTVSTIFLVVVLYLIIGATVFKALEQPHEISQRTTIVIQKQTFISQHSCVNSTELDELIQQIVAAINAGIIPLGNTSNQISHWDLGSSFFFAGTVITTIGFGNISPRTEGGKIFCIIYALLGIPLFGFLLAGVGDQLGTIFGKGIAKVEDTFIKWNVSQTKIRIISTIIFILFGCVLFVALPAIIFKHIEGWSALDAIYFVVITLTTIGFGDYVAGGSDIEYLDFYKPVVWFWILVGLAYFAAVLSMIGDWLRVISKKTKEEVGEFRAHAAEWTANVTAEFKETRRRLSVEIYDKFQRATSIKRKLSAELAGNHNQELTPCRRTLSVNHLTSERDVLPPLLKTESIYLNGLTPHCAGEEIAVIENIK
- PROCEDURE SUMMARY: TREK-1 Thallium (Tl+) flux assay, Method 1
- Assay type: cell-based
- TEST SETTINGS: TREK-1 Thallium (Tl+) flux assay; no *^12 (Method 2) mark on these rows
Below: a set of entries, each annotated with reported IC50.
Quote the value and follow it with the unit of measurement.

CC(=O)N1CCC(Cn2ncc(Cl)c2C(=O)Nc2ncc(C#Cc3ccc(F)cc3)cc2C)C(C)C1 (stereo not shown) [Compound 244] ... 380 nM
CC(=O)N1CCC(Cn2ncc(Cl)c2C(=O)Nc2ncc(C#Cc3ccc(F)cc3)cc2C)CC1 [Compound 256] ... 420 nM
Cc1cc(C#Cc2cccc(F)c2)cnc1NC(=O)c1c(Cl)cnn1CC1CCN(C(=O)C(C)C)CC1 [Compound 249] ... 400 nM

*Q* Quick one: IC50 of Cc1cc(C#Cc2ccccc2)cnc1NC(=O)c1c(Cl)cnn1CC1(C#N)CCCC1 [Compound 242] ?
*A* 380 nM

* * *

- TARGET DESC: human TREK-1 (Homo sapiens)
- Construct: expressed in transfected cells
- PROCEDURE SUMMARY: TREK-1 Thallium (Tl+) flux assay, Method 1
- Format: cell-based
- TEST SETTINGS: TREK-1 Thallium (Tl+) flux assay; no *^12 (Method 2) mark on these rows
Each entry below lists one item and its recorded IC50 value.
Please respond with the number in nM and leave the unit unwritten.

// worked examples, IC50 included
CC(=O)N1C[C@H]2C[C@H](n3ncc(Cl)c3C(=O)Nc3ncc(C#Cc4cccc(F)c4)cc3C)C[C@H]2C1 ... 300
CCC(=O)N1CCOC(Cn2ncc(Cl)c2C(=O)Nc2ncc(C#Cc3ccc(F)cc3)cc2C)C1 (stereo not shown) ... 770
Cc1cc(C#Cc2ccccc2)cnc1NC(=O)c1c(Cl)cnn1CC1CCCO1 (stereo not shown) ... 770
O=C(Nc1c(F)cc(C#Cc2ccccc2)cc1F)c1c(Cl)cnn1C1CCOCC1 ... 310
Cc1cc(C#Cc2ccccc2)cnc1NC(=O)c1c(Cl)cnn1C1CCN(C(=O)OC(C)(C)C)CC1 ... 650

*Q* Could you share which IC50 value was measured for CC(C)C(=O)N1CCC[C@H](Cn2ncc(Cl)c2C(=O)Nc2ncc(C#Cc3ccccc3)cc2F)C1 ?
*A* 500

*Q* # input molecule: Cc1cc(C#Cc2ccccc2)cc(F)c1NC(=O)c1c(Cl)cnn1C[C@H]1COCCO1 ; wanted: its IC50
*A* 500

* * *

- TARGET DESC: human TREK-1 (Homo sapiens, UniProt O95069)
- Construct: expressed in transfected cells
- PROCEDURE SUMMARY: TREK-1 Manual Patch Clamp (hMPC) assay
- Type: cell-based
- TEST SETTINGS: CHO-K1 cells stably expressing human TREK-1; whole-cell current at 0 mV
Could you please mark 1 (yes) for values of IC50 below 100 nM and 0 (no) for values at or above it?

CC(=O)N1CCC(n2ncc(Cl)c2C(=O)Nc2ncc(C#Cc3ccccc3)cc2F)CC1 ... 1 (yes)
Cc1cc(C#Cc2ccccc2)cnc1NC(=O)c1c(Cl)cnn1[C@@H]1CCOC1 ... 0 (no)
Cc1cc(C#Cc2ccccc2)cnc1NC(=O)c1c(Cl)cnn1CC1COCCO1 (centres unmarked) ... 0 (no)
CC(=O)N1CCC(F)(Cn2ncc(Cl)c2C(=O)Nc2ncc(C#Cc3ccccc3)cc2C)CC1 ... 0 (no)
CC(=O)N1CC(F)(Cn2ncc(Cl)c2C(=O)Nc2ncc(C#Cc3ccccc3)cc2F)C1 ... 0 (no)
CC(=O)N1CCC(n2ncc(Cl)c2C(=O)Nc2ncc(C#Cc3ccccc3)cc2C)CC1 ... 1 (yes)

Moving on to another compound below.
*Q* Say whether its IC50 is strictly beneath 100 nM. Entry: CC(=O)N[C@H]1CC[C@@H](n2ncc(Cl)c2C(=O)Nc2ncc(C#Cc3ccccc3)cc2C)CC1
*A* 1 (yes)
